Test system: HOP-62 NSCLC
Assay: NCI tumour cell line growth inhibition, 48 h

[
  {
    "Compound": "O=C([CH-]C(=O)c1ccccc1)c1ccccc1.O=C([CH-]C(=O)c1ccccc1)c1ccccc1.[Nd+3].[OH-].[OH3+]",
    "Tested System": "HOP-62 NSCLC",
    "GI50": "3.58 µM"
  },
  {
    "Compound": "S=C(Nc1ccc(Cl)cc1)Nc1ccc(Cl)cc1 (tested in a mixture with another compound)",
    "Tested System": "HOP-62 NSCLC",
    "GI50": "2.75 µM"
  },
  {
    "Compound": "COc1cc(/C=C/C(=O)c2ccc(Cl)cc2)ccc1OS(=O)(=O)c1ccc(C)cc1",
    "Tested System": "HOP-62 NSCLC",
    "GI50": "30 µM"
  },
  {
    "Compound": "O=C1CCC2(C=C(Br)C(=O)C(Br)=C2)O1",
    "Tested System": "HOP-62 NSCLC",
    "GI50": "20.8 µM"
  },
  {
    "Compound": "O=c1cc(-c2ccccc2)nc2n1CCN2Cc1ccccc1",
    "Tested System": "HOP-62 NSCLC",
    "GI50": "63.8 µM"
  },
  {
    "Compound": "C=C1C(=O)O[C@H]2[C@H]1CC/C(Cn1cc(-c3ccccc3)nn1)=C\\CC[C@@]1(C)O[C@@H]21",
    "Tested System": "HOP-62 NSCLC",
    "GI50": "7.41 µM"
  },
  {
    "Compound": "CC1(C)N=C(N)N=C(N)N1c1cc(Cl)ccc1Cl",
    "Tested System": "HOP-62 NSCLC",
    "GI50": "> 100 µM"
  },
  {
    "Compound": "O=C1C=Cc2ccccc2/C1=C/c1[nH]c(=O)[nH]c1O",
    "Tested System": "HOP-62 NSCLC",
    "GI50": "7.5 µM"
  },
  {
    "Compound": "CC1=Cc2cc3[n-]c(cc4nc(cc5[n-]c(cc1n2)cc5C)C(C)=C4CCC(=O)O)c(CCC(=O)O)c3C.[Pd+2]",
    "Tested System": "HOP-62 NSCLC",
    "GI50": "17.7 µM"
  }
]

====

Test system: CCRF-CEM leukemia
Experiment: NCI tumour cell line growth inhibition, 48 h
Entries and their measured TGI follow.
Parameter: TGI

[
  {
    "Compound": "C=C1C(=O)O[C@H]2[C@H]1CC/C(Cn1cc(-c3ccccc3)nn1)=C\\CC[C@@]1(C)O[C@@H]21",
    "Reported": "4.95 µM"
  },
  {
    "Compound": "Nc1ccccc1C#C/C=C\\C#Cc1ccc(Cl)cc1Cl",
    "Reported": "10.6 µM"
  },
  {
    "Compound": "O=C1C=Cc2ccccc2/C1=C/c1[nH]c(=O)[nH]c1O",
    "Reported": "> 100 µM"
  },
  {
    "Compound": "O=S1(=O)CCN(Cc2ccccc2)/C1=N\\S(=O)(=O)c1ccc(Cl)cc1",
    "Reported": "85.5 µM"
  },
  {
    "Compound": "COc1cc2cc(C(=O)N3CC(CCl)c4ccc(NCCN)cc43)[nH]c2c(OC)c1OC (stereo not given)",
    "Reported": "2.24 µM"
  },
  {
    "Compound": "Cc1cc(S(=O)(=O)Nc2nnc(-c3ccccc3)c(-c3ccccc3)n2)c(SCc2ccccc2)cc1Cl",
    "Reported": "75.5 µM"
  },
  {
    "Compound": "CCC1(N=[N+]=[N-])C(=O)Nc2cc(C)ccc2C1=O (stereo not given)",
    "Reported": "> 100 µM"
  },
  {
    "Compound": "O=S(=O)(O)c1c(N=Nc2c(O)ccc3ccccc23)ccc2ccccc12",
    "Reported": "> 100 µM"
  },
  {
    "Compound": "CCOC(CN=c1nc(N(C)C)ss1)OCC",
    "Reported": "4.33 µM"
  },
  {
    "Compound": "Cc1cc(Cl)ccc1N=NC(=O)NNc1ccc(Cl)cc1C",
    "Reported": "58.5 µM"
  },
  {
    "Compound": "CC1=NN(C(=O)Cc2ccccc2)C(=O)/C1=C\\C=C\\c1ccccc1",
    "Reported": "> 100 µM"
  },
  {
    "Compound": "COc1ccc(/C=C2/C[N+](C)(C)C/C(=C/c3ccc(OC)cc3)C2=O)cc1",
    "Reported": "> 96.1 µM"
  },
  {
    "Compound": "CC1OC(O[C@H]2CC[C@]3(C)[C@H]4CC=C5[C@@H]6[C@@H](C)[C@H](C)CC[C@]6(C(=O)O)CC[C@@]5(C(=O)O)[C@]4(C)CC[C@H]3C2(C)C)C(O)C(O)C1O (stereo not given in full)",
    "Reported": "> 75 µM"
  },
  {
    "Compound": "O=C1c2ccccc2-c2c1c1ccccc1c(=O)n2CCCN1CCOCC1",
    "Reported": "> 100 µM"
  },
  {
    "Compound": "C/C=C(/C)C(=O)O[C@H]1C(C)=C[C@]23C(=O)[C@@H](C=C(COC(C)=O)[C@@H](O)[C@]12O)[C@H]1[C@@H](C[C@H]3C)[C@@]1(C)OC(=O)/C(C)=C\\C",
    "Reported": "5.21 µM"
  },
  {
    "Compound": "Fc1ccc(-c2ccc(-c3nnc(-c4cc(F)c(Cl)cc4Cl)o3)o2)cc1Cl",
    "Reported": "> 100 µM"
  },
  {
    "Compound": "O=[N+]([O-])c1cccc2nccc(NCC(O)CO)c12 (stereo not given)",
    "Reported": "> 89.9 µM"
  },
  {
    "Compound": "CCCCc1c2c(nc3c1CCC/C3=C\\c1ccccc1)C(=O)C(CN(C)C)CC2 (stereo not given)",
    "Reported": "33 µM"
  },
  {
    "Compound": "CCCCCCCCCCCCCCCCP(=O)(O)OP(=O)(O)OCC1OC(n2cnc3c(N)ncnc32)C(O)C1O (stereo not given)",
    "Reported": "97.4 µM"
  },
  {
    "Compound": "CCCNC(=S)/N=C\\c1c(O)c2ccccc2oc1=O",
    "Reported": "> 100 µM"
  },
  {
    "Compound": "COc1c(O)ccc2c1CN1CCc3cc4c(cc3C1C2)OCO4 (stereo not given)",
    "Reported": "> 100 µM"
  },
  {
    "Compound": "CC1N(C)C(=O)OC12CCN(CCCC(=O)c1ccc(F)cc1)CC2 (stereo not given)",
    "Reported": "> 100 µM"
  },
  {
    "Compound": "COC(=O)c1ccc(N=NN(C)CO)cc1",
    "Reported": "> 100 µM"
  },
  {
    "Compound": "CC(=O)CCC[C@@H](C)[C@@H]1O[C@H]([C@@]2(C)CCC(=O)O2)C[C@H]2C(CSc3ccccc3)C(=O)O[C@@H]12 (stereo not given in full)",
    "Reported": "24.9 µM"
  },
  {
    "Compound": "COc1ccc(/C=C\\c2cc(OC)c(OC)c(OC)c2)cc1OCC(=O)Nc1nc2ccc(C(F)(F)F)cc2s1",
    "Reported": "> 100 µM"
  },
  {
    "Compound": "O=C(c1ccccc1)c1c(C(=O)c2ccccc2)c(-c2ccccc2)c2c(-c3ccccc3)sc(-c3ccccc3)c2c1-c1ccccc1",
    "Reported": "> 100 µM"
  },
  {
    "Compound": "COc1ccc2[nH]c(Cl)c(/C=C3/C(=O)N(C)c4ccccc43)c2c1",
    "Reported": "> 100 µM"
  },
  {
    "Compound": "CC1C[C@]2(C)C(=S)Nc3ccccc3[C@@H]2Nc2ccccc21 (stereo not given in full)",
    "Reported": "54.4 µM"
  },
  {
    "Compound": "O=S(=O)(c1ccc(I)cc1)N(c1ccccc1)S(=O)(=O)C(F)(F)C(F)(F)C(F)(F)C(F)(F)F",
    "Reported": "> 100 µM"
  },
  {
    "Compound": "C=C1CC[C@@H]2C(C)(C)CCC[C@@]2(C)[C@@H]1Cc1cc(O)ccc1O",
    "Reported": "5.23 µM"
  },
  {
    "Compound": "S=C1N(c2ccc(Cl)cc2)C2=C(N=Nc3ccccc3)C(=Nc3ccccc3S2)N1c1ccccn1",
    "Reported": "22.9 µM"
  },
  {
    "Compound": "CC(NNC(=S)N1CCCCCC1)c1ccc2ccccc2n1 (stereo not given)",
    "Reported": "> 100 µM"
  },
  {
    "Compound": "CN(C)CCO/N=C1/C=C2CC[C@H]3[C@@H]4CC[C@H](O)[C@@]4(C)CC[C@@H]3[C@@]2(C)CC1",
    "Reported": "> 21.6 µM"
  },
  {
    "Compound": "O=C1CCC2SC1CCC2=O",
    "Reported": "> 100 µM"
  },
  {
    "Compound": "CCCCCc1c2nc(c(CCCCC)c3ccc([nH]3)c(CCCCC)c3ccc([nH]3)c(CCCCC)c3nc1C=C3)C=C2",
    "Reported": "> 100 µM"
  },
  {
    "Compound": "COC(=O)c1nc(NC#N)[nH]c(=O)c1C",
    "Reported": "> 100 µM"
  },
  {
    "Compound": "CCOP(=O)(OCC)/C(C#N)=C/c1ccco1",
    "Reported": "> 100 µM"
  },
  {
    "Compound": "COc1ccc(-c2nc(-c3cn(C)c4ncccc34)cs2)cc1",
    "Reported": "> 100 µM"
  },
  {
    "Compound": "CSc1cc(Cl)c(C)cc1S(=O)(=O)NC(=O)NNc1ccc(F)c(Cl)c1",
    "Reported": "> 100 µM"
  },
  {
    "Compound": "O=C(NOCC1CC1)c1ccc(F)c(F)c1Nc1ccc(I)cc1Cl",
    "Reported": "19.1 µM"
  }
]
